- PROCEDURE DETAILS: NCI Yeast Anticancer Drug Screen. Data for the mec2-1 strain (AID 157)
- CONDITION CONTEXT: S. cerevisiae mec2-1 strain, at 1.2 µM, hits give high values
Compounds without any hit were thinned out: in the full panel of roughly 79,000, 15% have a hit.
PARAMETER: growth inhibition (%)
Numbers only here, please. The scale is %.

COC(=O)CCC(NC(=S)N/N=C(\C)c1ccccn1)C(=O)OC (stereo not given) :: -11
COc1cccc(/C=N/C(/N=C/c2cccc(OC)c2O)c2cccc(OC)c2O)c1O :: -1
CCN(CC)CCNc1ccc2ncn3c4cc(OC)c(OC)c(=O)c4c(O)c1c23 :: -2
CNCCCNc1c2ccccc2nc2cccc([N+](=O)[O-])c12 :: 41

// next item, growth inhibition requested
## Input Field request: growth inhibition | item: COc1ccc(C(NCCNC(c2ccc(OC)c(OC)c2)c2cc3c(cc2O)OCO3)c2cc3c(cc2O)OCO3)cc1OC (stereo not given)
## Output -1
